Biological target: T1, SHC1 149-317 PID (domain begin residue: 149, domain end residue: 317), P29353
T1 chain: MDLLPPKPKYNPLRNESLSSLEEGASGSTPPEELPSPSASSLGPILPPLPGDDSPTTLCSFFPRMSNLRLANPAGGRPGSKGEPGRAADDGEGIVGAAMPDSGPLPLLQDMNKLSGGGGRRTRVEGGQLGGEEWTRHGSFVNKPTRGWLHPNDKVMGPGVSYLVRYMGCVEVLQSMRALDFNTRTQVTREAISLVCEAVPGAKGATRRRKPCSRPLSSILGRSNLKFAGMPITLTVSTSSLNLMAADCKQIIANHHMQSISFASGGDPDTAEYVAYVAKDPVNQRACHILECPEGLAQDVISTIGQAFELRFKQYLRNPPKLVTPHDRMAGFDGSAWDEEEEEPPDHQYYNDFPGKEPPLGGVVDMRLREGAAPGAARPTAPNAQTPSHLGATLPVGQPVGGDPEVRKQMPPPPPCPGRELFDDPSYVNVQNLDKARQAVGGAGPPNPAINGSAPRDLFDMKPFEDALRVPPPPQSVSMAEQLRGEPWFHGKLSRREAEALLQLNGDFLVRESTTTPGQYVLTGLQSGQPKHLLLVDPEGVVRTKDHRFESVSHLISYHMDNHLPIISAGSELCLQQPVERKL
Assay: phage ELISA signal ratio (GST-PRM binding over GST background); higher = stronger binding of peptide-phage to the PRM
OUTCOME MEASURE: phage ELISA signal ratio
In your answer, state the number alone without any accompanying words.

             binder  quantitative_readout
0  ESEGSHYWNYFADAIA                  18.2

Consider the binder HVQWINHSFMMDMPQN and give its measured phage ELISA signal ratio. 15.5

Looking for the measured phage ELISA signal ratio of PKWEFFQDHTQDHHNQ , can you help? 6.37

Request the reported phage ELISA signal ratio associated with QVDQGEYVYGFWWEVL 9.85
